# ASSAY COMMENT: qHTS for Inhibitors of Inflammasome Signaling: IL-1-beta AlphaLISA Primary Screen
# MEASUREMENT CONDITIONS: THP-1 LPS/ATP IL-1B secretion, 16 h; at 57.5 µM
The campaign covered roughly 360,000 compounds. About 17,000 (4.7%) were called active. About 5% were inconclusive and are not listed. Cut-off read from the data, not from the text of the source: active = activity change below about -50%; inconclusive = mostly about -30% to -49%; inactive = weaker than that. Only a selection was taken, and actives are over-represented in it overall.
The categories you may choose from are active, inactive

Reference set (5 entries):
COc1cc2c(cc1OC)C(C)N(S(=O)(=O)c1cnc(Cl)c(Cl)c1)CC2 (stereo not given) :: active
COc1cc(/C=C(/NC(=O)c2ccc(Cl)cc2Cl)C(=O)O)cc(OC)c1OC :: inactive
Cc1c(OC(C)C(=O)N[C@@H](Cc2ccccc2)C(=O)O)ccc2c3c(c(=O)oc12)CCCC3 (stereo not given in full) :: inactive
CCOC(=O)C1=C(CSc2nccn2C)NC(=O)NC1c1ccc(OC)cc1 (stereo not given) :: inactive
CCOCCOC(=O)C1=C(C)NC(=O)NC1c1ccc2c(c1)OCO2 (stereo not given) :: inactive

For the next question, use this compound.
# input For `NC(=O)C1(Nc2ccccc2Cl)CCCC1` , what call appears in the results of this test?
# output inactive
